FYI, the data here is from PubChem BioAssay.

# Assay notes: yeast AGP1-GFP level changes, GLN3 branch – cell-based, multiplex flow cytometry, S. cerevisiae, primary screen (AID 1887);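 further: AGP1-GFP fusion strain of S. cerevisiae within a five-strain barcoded multiplex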
# Assay conditions: 3 h, at 10 µM, hits give high values
Inconclusive results are not listed.
Assay readout: GFP response, % of DMSO (%)
// units = %; emit number, no label

Known GFP response, % of DMSO results, listed for orientation:
Cc1oc2cc(O)cc(O)c2c(=O)c1-c1ccc2c(c1)OCCCO2 ... 91.7
Cc1ccccc1NC(=O)NCCc1c[nH]c2ccccc12 ... 98.8
O=C1c2cccc3cccc(c23)C(=O)N1c1ccccn1 ... 107
O=C(O)[C@@H](O)c1ccccc1 ... 120
NC(=O)c1cccnc1 ... 98.7

The recorded GFP response, % of DMSO for Cc1nc(NCc2ccco2)c(C#N)c2c1COC(C)(C)C2 is 92.4

The recorded GFP response, % of DMSO for COc1ccc(-c2nc3c(=O)n(C)c(=O)[nH]c3n2CCc2ccccc2)cc1 is 104

The recorded GFP response, % of DMSO for COc1ccc(CNC(=O)C2CCCN2C)cc1OC (configuration not stated) is 96.7

The recorded GFP response, % of DMSO for C[C@H](NC(=O)C1(c2ccccc2)CCN(C(=O)[C@H]2CSCN2C(=O)OC(C)(C)C)CC1)C(=O)O is 117

The recorded GFP response, % of DMSO for O=CNC1CCCc2c1[nH]c1ccc(Cl)cc21 (configuration not stated) is 98.3

The recorded GFP response, % of DMSO for NC(=O)c1ccccc1O is 97.4

The recorded GFP response, % of DMSO for Cc1oc2c(O)c(O)ccc2c(=O)c1-c1ccccc1 is 90.8

###

Overview of recorded binding (% of control) for various compounds
# Test system: anti-desmoglein-3 scFv antibody binding to human DSG3
# Assay notes: blockers of pathogenic pemphigus antibody–desmoglein-3 binding – biochemical, validation compound set, bead-based, flow cytometry, pilot screen (AID 588368);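 further: signal is the median channel fluorescence of bead-bound GFP antibody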
# Assay conditions: Protein G beads, DSG3-Fc, scFv-GFP binding, at 10 µM, hits give low values
// units = %; emit number, no label

NS(=O)(=O)c1ccc(CCNC(=O)C2CCCN2C(=O)OCc2ccccc2)cc1 (stereo not given) ... 104
COc1ccc(-c2cc(=O)oc3cc(OC(C)C(=O)O)ccc23)cc1 (stereo not given) ... 108
CC(C)COC(=O)C1C(=O)CC(C)(O)C(C(=O)OCC(C)C)C1c1cccnc1 (stereo not given) ... 102

The recorded binding (% of control) for CCOC(=O)c1oc2cc(O)cc(C)c2c(=O)c1-c1cscn1 is 101

The recorded binding (% of control) for CC(NC(=O)OCc1ccccc1)C(=O)N1CC(O)CC1C(=O)O (stereo not given) is 99.5

The recorded binding (% of control) for COc1c2c(nc3occc13)C(CC=C(C)C)(OC)C(O)CC2 (stereo not given) is 103

The recorded binding (% of control) for C[C@H]([C@@H](N)C(=O)N[C@@H](C(=O)O)[C@@H]1O[C@H](n2ccc(=O)[nH]c2=O)[C@@H](O)[C@H]1O)[C@@H](O)c1ccc(O)cn1 is 104

The recorded binding (% of control) for O=C1CN(O)C=C2N=c3ccccc3=C2N1c1ccc([N+](=O)[O-])cc1 is 100

The recorded binding (% of control) for COc1ccccc1NC(=O)N1CCc2[nH]c3ccc(Cl)cc3c2C1 is 121

The recorded binding (% of control) for NC(=O)c1ccccc1O is 100
